- experimental.protocol: Tmax in Cynomolgous monkey at 5 mg/kg, po by LC-MS/MS analysis
- Assay type: ADME, organism-based, Macaca fascicularis
- condition.parameters: cynomolgus monkey, in vivo
measurement.kind: Tmax (h)
Give the number; h is assumed, so skip it.

IN: Which measured Tmax value corresponds to C#CC1(NC(=O)C(=O)c2c(C)c(C(=O)Nc3ccc(F)c(C#N)c3)n(C)c2C)COC1 ?
OUT: 1.17

---

- experimental.protocol: Ratio of drug concentration in blood to plasma in human at 5 uM incubated for 60 mins
- Type: ADME, cell-free
measurement.kind: blood plasma ratio at 1 h, 5 µM
Answer using only a numeral; do not append any unit.

IN: Which measured blood plasma ratio at 1 h, 5 µM value corresponds to C#CC1(NC(=O)C(=O)c2c(C)c(C(=O)Nc3ccc(F)c(C#N)c3)n(C)c2C)COC1 ?
OUT: 0.73
